procedureDetails: HUVEC growth inhibition – cell-based, human, primary screen (AID 575);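 note: 100% = median of untreated cell wells with 0.1% DMSO on each plate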
testContext: HUVEC proliferation, CellTiter-Glo luminescence, 72 h; at 10 µM; stronger effect = lower value
measuredQuantity: viability (%)
Number in %, nothing else.

Sample answers from the record:
c1ccc2c(c1)C(=Nn1cnnc1)c1ccccc1-2 ... 92.3
Cc1ccc(Cl)cc1N1CCN(C(=O)CN2C(=O)c3cccc4cccc2c34)CC1 ... 66.6
O=C(C1CCC(CNS(=O)(=O)c2cccc3cccnc23)CC1)N1CCCC1 (stereo unspecified) ... 99.9
CCOC(=O)c1ccc(NC(=O)N2CCN(CCc3ccccc3)CC2)cc1 ... 91.7
COC(=O)Cc1c(C)nc2nc(-c3ccccc3)[nH]n2c1=O ... 90.8

Turning to the following molecule.
Requested read-out: viability. Entry: `O=C(CN1c2cccc3cccc(c23)S1(=O)=O)N1CCOCC1`
105

---

procedureDetails: reversal of MRP1-mediated doxorubicin resistance, pilot screen, H69AR cells, doxorubicin co-treatment (AID 601)
testContext: H69AR cells, CellTiter-Glo, 72 h; compound alone cytotoxicity; at 10 µM
measuredQuantity: viability
State the value with its unit after it.

Use these answered entries as a reference point.
COc1ccc(OC)c(CNC(=O)CCN2C(=O)COc3ccccc32)c1 ... 91.8%
CCOC(=O)c1sc(Nc2nc3c(OC)cccc3s2)nc1C ... 59.2%

Field request: viability | item: `Cc1ccc(CCSCC(=O)O)cn1`
101%

Value lookup for viability; key = `CCNc1ccc(S(=O)(=O)C(F)(F)F)cc1NC(=O)C12CCC(CC1)C2`
92.3%

Any idea what viability was measured for `CC(=O)N1CCc2cc(S(=O)(=O)NCCC(=O)Nc3cc(C)cc(C)c3)ccc21` ?
95.6%

Find the recorded viability belonging to `CN(C)C(=O)COc1ccc2cc(-c3ccccc3)c(=O)oc2c1` and report it.
90.7%

---

procedureDetails: SK-BR-3 cell growth inhibitors, pilot screen, 24 h, human (AID 572);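 note: compound exposure lasted between 18 and 24 h rather than exactly 24 h; 100% = carrier-treated control wells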
testContext: SK-BR-3 viability, CellTiter-Glo luminescence, at 10 µM, stronger effect = lower value
measuredQuantity: viability (%)
Just the number please, in %, no unit attached.

Cc1ccc(OCC2Cn3c(nc4c3c(=O)n(C)c(=O)n4C)O2)cc1 (centres undefined) ... 91
Cc1c(C(=O)NCc2ccoc2)oc2ccc3c(c12)C(=O)CC(C)(C)O3 ... 129
COc1ccccc1CCNC(=O)C1CCCO1 (centres undefined) ... 108
CS(=O)(=O)N1CCCC(C(=O)N2CCOCC2)C1 (centres undefined) ... 97
CCOC(=O)c1sc2nc(SCC#N)n(CCCN3CCCC3=O)c(=O)c2c1C ... 80.5
Cn1c(=O)c2c(ncn2CC(O)CO)n(C)c1=O (centres undefined) ... 117
Cc1nc(CNS(=O)(=O)c2cccc(F)c2)cs1 ... 64
O=c1oc2ccccc2c(N2CCCCC2)c1CN1CCCCC1 ... 86

Entry CC1CCCN(S(=O)(=O)c2ccc(C(=O)Nc3nnc(-c4ccccc4Cl)o3)cc2)C1 (centres undefined) has what viability?
87

I have this compound here, `CCc1nc(N)nc(N)c1-c1ccc(Cl)cc1` , and I need its recorded viability.
103

For the compound `Cc1nc(NC(=O)c2ccccc2)sc1-c1csc(NCc2ccco2)n1` , what viability is on record?
82

Endpoint output: viability of `CCC(=O)N1CCc2cc(S(=O)(=O)CCC(=O)Nc3nc(C)cs3)ccc21` . Value?
106
